# EXPERIMENT: MTT cytotoxicity in uninduced retinoic acid‐differentiated SH‐SY5Y cells
# Type: cell-based
# EXPERIMENTAL_CONTEXT: human; uninduced retinoic acid‐differentiated SH‐SY5Y cells, 7 days treatment; read-out: IC50 (MTT cytotoxicity)
ENDPOINT_NAME: IC50 at 7 days (µM)
Give bare numbers, in µM.

Item: C=CC(C)(C)c1cc(/C=C/C(=O)c2ccc(O)cc2)c(OC)cc1O [licochalcone A, reference compound] | IC50 at 7 days: 5.8

---

# EXPERIMENT: MTT cytotoxicity in uninduced ∆K280 TauRD‐DsRed 293 cells
# Assay type: cell-based
# EXPERIMENTAL_CONTEXT: human, uninduced Tet-On ∆K280 TauRD-DsRed 293 cells; uninduced 293 cells, 3 days treatment; read-out: IC50 (MTT cytotoxicity)
ENDPOINT_NAME: IC50 at 3 days (µM)
Answers are plain numbers, in µM.

Item: C=CC(C)(C)c1cc(/C=C/C(=O)c2ccc(O)cc2)c(OC)cc1O [licochalcone A, reference compound] | IC50 at 3 days: 7
